Value source: the supplement of paper PMC7125110

B1: glmS ribozyme (parent)
chain: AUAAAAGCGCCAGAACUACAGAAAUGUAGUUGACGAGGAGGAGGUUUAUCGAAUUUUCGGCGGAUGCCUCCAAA

Variants of: B1
Test: self-cleavage kobs at 2500 uM GlcN6P; higher = faster cleavage; RNA array
Details: with glucosamine-6-phosphate
Variants at the floor of the assay were thinned out.
Kindly state self-cleavage kobs at 2500 uM GlcN6P for each of the entries shown.

Query :: Entry C8U G9A G29U C58U : reported self-cleavage kobs at 2500 uM GlcN6P = ?
Result :: < 1e-05 s⁻¹

Query :: Entry C34A G38U A53C : reported self-cleavage kobs at 2500 uM GlcN6P = ?
Result :: < 1e-05 s⁻¹

Query :: Entry U30A G38U : reported self-cleavage kobs at 2500 uM GlcN6P = ?
Result :: < 1e-05 s⁻¹

Query :: Entry A33G G35A A36C G41A C61G C68G : reported self-cleavage kobs at 2500 uM GlcN6P = ?
Result :: < 1e-05 s⁻¹

Query :: Entry G44U U46G : reported self-cleavage kobs at 2500 uM GlcN6P = ?
Result :: 0.000102 s⁻¹

Query :: Entry C10A C34G A36G A39C U65A : reported self-cleavage kobs at 2500 uM GlcN6P = ?
Result :: < 1e-05 s⁻¹

Query :: Entry A14G U30C : reported self-cleavage kobs at 2500 uM GlcN6P = ?
Result :: 0.000958 s⁻¹

Query :: Entry A6G G51A G59U G60A : reported self-cleavage kobs at 2500 uM GlcN6P = ?
Result :: < 1e-05 s⁻¹

Query :: Entry G43A G51U U65A G66U : reported self-cleavage kobs at 2500 uM GlcN6P = ?
Result :: < 1e-05 s⁻¹

Query :: Entry G13A G40C : reported self-cleavage kobs at 2500 uM GlcN6P = ?
Result :: 2.55e-05 s⁻¹

Query :: Entry U46G U56G C70U : reported self-cleavage kobs at 2500 uM GlcN6P = ?
Result :: 0.00119 s⁻¹

Query :: Entry G29U A48U A53U G63A : reported self-cleavage kobs at 2500 uM GlcN6P = ?
Result :: < 1e-05 s⁻¹

Query :: Entry U46A U47A : reported self-cleavage kobs at 2500 uM GlcN6P = ?
Result :: 0.00385 s⁻¹

Query :: Entry G7U G13A G38U A52C A53C : reported self-cleavage kobs at 2500 uM GlcN6P = ?
Result :: < 1e-05 s⁻¹

Query :: Entry G38C G59C C71G : reported self-cleavage kobs at 2500 uM GlcN6P = ?
Result :: < 1e-05 s⁻¹

Query :: Entry G38C G41A : reported self-cleavage kobs at 2500 uM GlcN6P = ?
Result :: < 1e-05 s⁻¹

Query :: Entry U46C U54A C61U : reported self-cleavage kobs at 2500 uM GlcN6P = ?
Result :: < 1e-05 s⁻¹

Query :: Entry U54C U57A : reported self-cleavage kobs at 2500 uM GlcN6P = ?
Result :: 0.000112 s⁻¹

Query :: Entry G32C C50G C67G : reported self-cleavage kobs at 2500 uM GlcN6P = ?
Result :: 4.82e-05 s⁻¹

Query :: Entry C50G A52G : reported self-cleavage kobs at 2500 uM GlcN6P = ?
Result :: 3.29e-05 s⁻¹

Query :: Entry C10A A64C C67G : reported self-cleavage kobs at 2500 uM GlcN6P = ?
Result :: 8.61e-05 s⁻¹

Query :: Entry U30A C70A : reported self-cleavage kobs at 2500 uM GlcN6P = ?
Result :: 7.75e-05 s⁻¹

Query :: Entry A6U G35U G51U : reported self-cleavage kobs at 2500 uM GlcN6P = ?
Result :: < 1e-05 s⁻¹

Query :: Entry A12C U46C C67G : reported self-cleavage kobs at 2500 uM GlcN6P = ?
Result :: 0.000179 s⁻¹

Query :: Entry A48C U56C : reported self-cleavage kobs at 2500 uM GlcN6P = ?
Result :: 4.83e-05 s⁻¹

Query :: Entry U30A C71A : reported self-cleavage kobs at 2500 uM GlcN6P = ?
Result :: 0.000946 s⁻¹

Query :: Entry G13U C50G : reported self-cleavage kobs at 2500 uM GlcN6P = ?
Result :: 5.61e-05 s⁻¹

Query :: Entry C11G U57G : reported self-cleavage kobs at 2500 uM GlcN6P = ?
Result :: < 1e-05 s⁻¹

Query :: Entry G59A G60U C61A : reported self-cleavage kobs at 2500 uM GlcN6P = ?
Result :: < 1e-05 s⁻¹

Query :: Entry A33C A36U G38C : reported self-cleavage kobs at 2500 uM GlcN6P = ?
Result :: < 1e-05 s⁻¹

Query :: Entry G7C G66U : reported self-cleavage kobs at 2500 uM GlcN6P = ?
Result :: < 1e-05 s⁻¹

Query :: Entry A36G G44U A48G C67U C71A : reported self-cleavage kobs at 2500 uM GlcN6P = ?
Result :: < 1e-05 s⁻¹

Query :: Entry G13U A36C A42G C58U : reported self-cleavage kobs at 2500 uM GlcN6P = ?
Result :: < 1e-05 s⁻¹

Query :: Entry U31C U45A C67A : reported self-cleavage kobs at 2500 uM GlcN6P = ?
Result :: 0.000723 s⁻¹

Query :: Entry A15U G29A G62A : reported self-cleavage kobs at 2500 uM GlcN6P = ?
Result :: < 1e-05 s⁻¹

Query :: Entry A14U A36U C71U : reported self-cleavage kobs at 2500 uM GlcN6P = ?
Result :: < 1e-05 s⁻¹

Query :: Entry G29A U45A : reported self-cleavage kobs at 2500 uM GlcN6P = ?
Result :: 0.00447 s⁻¹

Query :: Entry A64C C70U : reported self-cleavage kobs at 2500 uM GlcN6P = ?
Result :: 3.63e-05 s⁻¹

Query :: Entry G40C G44A : reported self-cleavage kobs at 2500 uM GlcN6P = ?
Result :: < 1e-05 s⁻¹

Query :: Entry G7C A52U : reported self-cleavage kobs at 2500 uM GlcN6P = ?
Result :: < 1e-05 s⁻¹

Query :: Entry A33G C50G G66U : reported self-cleavage kobs at 2500 uM GlcN6P = ?
Result :: 0.000301 s⁻¹

Query :: Entry U30C U54G : reported self-cleavage kobs at 2500 uM GlcN6P = ?
Result :: 0.00018 s⁻¹

Query :: Entry G7A A15U A33G A36U G38U U57C : reported self-cleavage kobs at 2500 uM GlcN6P = ?
Result :: < 1e-05 s⁻¹

Query :: Entry A28G C70A : reported self-cleavage kobs at 2500 uM GlcN6P = ?
Result :: 0.000497 s⁻¹

Query :: Entry C8G G32U : reported self-cleavage kobs at 2500 uM GlcN6P = ?
Result :: < 1e-05 s⁻¹

Query :: Entry C8U G44C A52U C61A : reported self-cleavage kobs at 2500 uM GlcN6P = ?
Result :: < 1e-05 s⁻¹

Query :: Entry G9U G29C U54G U69A : reported self-cleavage kobs at 2500 uM GlcN6P = ?
Result :: < 1e-05 s⁻¹

Query :: Entry A14C A33C A53U U55A G60U : reported self-cleavage kobs at 2500 uM GlcN6P = ?
Result :: < 1e-05 s⁻¹

Query :: Entry G9A U56G G60A : reported self-cleavage kobs at 2500 uM GlcN6P = ?
Result :: < 1e-05 s⁻¹

Query :: Entry C16A G29U : reported self-cleavage kobs at 2500 uM GlcN6P = ?
Result :: 0.0144 s⁻¹

Query :: Entry U56G C71A : reported self-cleavage kobs at 2500 uM GlcN6P = ?
Result :: 0.000518 s⁻¹

Query :: Entry A36G G40C G59U : reported self-cleavage kobs at 2500 uM GlcN6P = ?
Result :: < 1e-05 s⁻¹

Query :: Entry G29C A39U : reported self-cleavage kobs at 2500 uM GlcN6P = ?
Result :: 0.000753 s⁻¹

Query :: Entry G40C G41U G43U : reported self-cleavage kobs at 2500 uM GlcN6P = ?
Result :: < 1e-05 s⁻¹

Query :: Entry C10A G44U U49G U54C G60U C67U : reported self-cleavage kobs at 2500 uM GlcN6P = ?
Result :: < 1e-05 s⁻¹

Query :: Entry A15U A42U G43C C61G U69A : reported self-cleavage kobs at 2500 uM GlcN6P = ?
Result :: < 1e-05 s⁻¹

Query :: Entry A42U C61A : reported self-cleavage kobs at 2500 uM GlcN6P = ?
Result :: < 1e-05 s⁻¹

Query :: Entry G62U C71A : reported self-cleavage kobs at 2500 uM GlcN6P = ?
Result :: < 1e-05 s⁻¹

Query :: Entry G43C C58G : reported self-cleavage kobs at 2500 uM GlcN6P = ?
Result :: < 1e-05 s⁻¹

Query :: Entry U54A G66C : reported self-cleavage kobs at 2500 uM GlcN6P = ?
Result :: 0.000758 s⁻¹

Query :: Entry "U46G" : reported self-cleavage kobs at 2500 uM GlcN6P = ?
Result :: 0.00589 s⁻¹

Query :: Entry C61A U65A : reported self-cleavage kobs at 2500 uM GlcN6P = ?
Result :: < 1e-05 s⁻¹

Query :: Entry C10G C34A G37A G60U : reported self-cleavage kobs at 2500 uM GlcN6P = ?
Result :: < 1e-05 s⁻¹

Query :: Entry A42G C58A A64U : reported self-cleavage kobs at 2500 uM GlcN6P = ?
Result :: < 1e-05 s⁻¹
